Reference for the values: patent US11472811B2

# target-of-assay: human A2A receptor (A2AR) (Homo sapiens (Human))
# Sequence (P29274 whole entry): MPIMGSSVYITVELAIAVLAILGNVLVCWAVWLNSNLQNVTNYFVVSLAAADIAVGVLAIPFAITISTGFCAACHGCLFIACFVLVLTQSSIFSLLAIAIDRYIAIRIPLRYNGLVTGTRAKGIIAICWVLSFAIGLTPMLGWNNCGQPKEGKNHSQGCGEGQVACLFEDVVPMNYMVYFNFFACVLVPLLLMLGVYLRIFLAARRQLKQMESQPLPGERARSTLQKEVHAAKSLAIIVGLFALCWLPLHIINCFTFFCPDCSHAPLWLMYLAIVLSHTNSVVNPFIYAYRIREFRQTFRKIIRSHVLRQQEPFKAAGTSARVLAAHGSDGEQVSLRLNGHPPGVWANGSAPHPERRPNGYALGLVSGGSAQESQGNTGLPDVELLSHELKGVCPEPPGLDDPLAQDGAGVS
# assay-explanation: Luciferase reporter assay (HEK293-A2AR-luc2p/CRE/Hygro cells)
# Assay type: cell-based
# experimental-parameters: 3 nM CGS21680, 5 h incubation
measured-metric: IC50 (nM)

Worked examples follow.
[
  {
    "compound": "C[C@](C(=O)NCCC1CCC(O)CC1)(c1ccccc1)n1ncc2c1nc(N)n1nc(-c3ccco3)nc21 (stereo partly shown) [Example 149B]",
    "IC50 [nM]": 1.7
  },
  {
    "compound": "CC(C(=O)NCc1ccccn1)(c1ccccc1)n1ncc2c1nc(N)n1nc(-c3ccco3)nc21 (stereo not shown)",
    "IC50 [nM]": 6.2
  },
  {
    "compound": "CC(C(=O)NC1CCOCC1)(c1ccccc1)n1ncc2c1nc(N)n1nc(-c3ccco3)nc21 (stereo not shown)",
    "IC50 [nM]": 19.2
  },
  {
    "compound": "C[C@](C(=O)NCc1ncccc1C(F)(F)F)(c1ccccc1)n1ncc2c1nc(N)n1nc(-c3ccco3)nc21 [Example 141B]",
    "IC50 [nM]": 1.1
  }
]

[1] CC(C(=O)NCc1ccncc1)(c1ccccc1)n1ncc2c1nc(N)n1nc(-c3ccco3)nc21 (stereo not shown)
[2] COc1ccnc(CNC(=O)C(C)(c2ccccc2)n2ncc3c2nc(N)n2nc(-c4ccco4)nc32)c1 (stereo not shown)
Request: # returns the entry with the larger IC50; inputs 1 and 2 When you have decided, please share the label of that item.
Result: 1
